Tested on: ANKA strain of P. berghei
Assay method text: single dose STI in vivo screen in infected mice
Set-up: species or system Plasmodium berghei
Condition details: single 10 mg/kg po in 3% ethanol and 7% Tween 80; untreated control 5.6 ± 0.3
Parameter measured: Survival (days) po
Reply numerically in days, unit not repeated.

What measured Survival (days) po is associated with O=S(=O)(c1cccc2cccnc12)N1CCC2(CC1)OOC1(O2)C2CC3CC(C2)CC1C3 (centres unmarked) on ANKA strain of P. berghei?
5.7

Tell me reported Survival (days) po for c1ccc(CN2CCC3(CC2)OOC2(O3)C3CC4CC(C3)CC2C4)cc1 (centres unmarked) , tested with ANKA strain of P. berghei.
6.0

Short answer please: Survival (days) po, ANKA strain of P. berghei, entry CON=C1CC2CC3(CC2C1)OOC1(O3)C2CC3CC(C2)CC1C3 (centres unmarked)
6.7

Entry CCS(=O)(=O)CCN1CCC2(CC1)OOC1(O2)C2CC3CC(C2)CC1C3 (centres unmarked) , system ANKA strain of P. berghei: what Survival (days) po was measured?
7.0

Quick check: Survival (days) po on ANKA strain of P. berghei, item CCOC(=O)CCC1CCCCC12OOC1(CCCCC1)O2 (centres unmarked) ?
6.0

Value wanted: Survival (days) po (ANKA strain of P. berghei) of entry O=C1OC2(CCC3(CC2)OOC2(O3)C3CC4CC(C3)CC2C4)c2ccccc21 (centres unmarked)
7.7

// map c1ccc2c(c1)COC1(CCC3(CC1)OOC1(O3)C3CC4CC(C3)CC1C4)OC2 (centres unmarked) to recorded Survival (days) po (system: ANKA strain of P. berghei)
9.0
